Origin of measurements: ChEMBL document CHEMBL2439953

measured target: Neuropeptide Y receptor type 1 (Homo sapiens)
Sequence (P25929 whole entry): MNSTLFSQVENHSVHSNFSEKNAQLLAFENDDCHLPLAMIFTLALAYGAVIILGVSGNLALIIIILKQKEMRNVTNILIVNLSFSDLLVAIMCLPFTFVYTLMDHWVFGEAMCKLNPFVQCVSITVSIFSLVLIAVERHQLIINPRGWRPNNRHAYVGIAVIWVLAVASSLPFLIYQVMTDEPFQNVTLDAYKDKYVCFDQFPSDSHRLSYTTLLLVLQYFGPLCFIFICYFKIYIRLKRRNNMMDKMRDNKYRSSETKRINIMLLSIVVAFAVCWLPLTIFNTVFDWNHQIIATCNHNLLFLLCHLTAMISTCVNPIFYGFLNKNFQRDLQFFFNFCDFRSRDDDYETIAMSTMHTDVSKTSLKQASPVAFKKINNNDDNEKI
procedure details: Displacement of [3H]UR-MK114 from human neuropeptide Y receptor type 1 expressed in human SK-N-MC cells
Type: cell-based
pKi: −log10 of the molar value.
quantity: pKi

Would you please look over these solved cases?
sample_smiles=NCCN(CCNC(=O)CCC(=O)NCCOCCOCCNC(=O)/N=C(/N)NCCC[C@H](NC(=O)C(c1ccccc1)c1ccccc1)C(=O)NCc1ccc(CNC(N)=O)cc1)CCNC(=O)CCC(=O)NCCOCCOCCNC(=O)/N=C(/N)NCCC[C@H](NC(=O)C(c1ccccc1)c1ccccc1)C(=O)NCc1ccc(CNC(N)=O)cc1 result_value=5.51
sample_smiles=NCCOCCOCCNC(=O)CCC(=O)NCCNC(=O)/N=C(\N)NCCC[C@@H](NC(=O)C(c1ccccc1)c1ccccc1)C(=O)NCc1ccc(CNC(N)=O)cc1 result_value=7.11
sample_smiles=NCCN(CCNC(=O)CCCCC(=O)NCCCCNC(=O)/N=C(/N)NCCC[C@@H](NC(=O)C(c1ccccc1)c1ccccc1)C(=O)NCc1ccc(O)cc1)CCNC(=O)CCCCC(=O)NCCCCNC(=O)/N=C(/N)NCCC[C@@H](NC(=O)C(c1ccccc1)c1ccccc1)C(=O)NCc1ccc(O)cc1 result_value=7.38
sample_smiles=NCCN(CCNC(=O)CCC(=O)NCCOCCOCCNC(=O)/N=C(/N)NCCC[C@@H](NC(=O)C(c1ccccc1)c1ccccc1)C(=O)NCc1ccc(CNC(N)=O)cc1)CCNC(=O)CCC(=O)NCCOCCOCCNC(=O)/N=C(/N)NCCC[C@@H](NC(=O)C(c1ccccc1)c1ccccc1)C(=O)NCc1ccc(CNC(N)=O)cc1 result_value=6.64
sample_smiles=NCCCCCCNC(=O)/N=C(/N)NCCC[C@@H](NC(=O)C(c1ccccc1)c1ccccc1)C(=O)NCc1ccc(O)cc1 result_value=8.00

I: NC(=NCCC[C@@H](NC(=O)C(c1ccccc1)c1ccccc1)C(=O)NCc1ccc(O)cc1)NC(=O)CCCCCCC(=O)NC(N)=NCCC[C@@H](NC(=O)C(c1ccccc1)c1ccccc1)C(=O)NCc1ccc(O)cc1
II: NCCN(CCNC(=O)CCCC(=O)NCCOCCOCCNC(=O)/N=C(/N)NCCC[C@@H](NC(=O)C(c1ccccc1)c1ccccc1)C(=O)NCc1ccc(O)cc1)CCNC(=O)CCCC(=O)NCCOCCOCCNC(=O)/N=C(/N)NCCC[C@@H](NC(=O)C(c1ccccc1)c1ccccc1)C(=O)NCc1ccc(O)cc1
III: N=C(N)NCCOCCOCCNC(=O)/N=C(/N)NCCC[C@@H](NC(=O)C(c1ccccc1)c1ccccc1)C(=O)NCc1ccc(O)cc1
IV: N=C(N)NCCC[C@@H](NC(=O)C(c1ccccc1)c1ccccc1)C(=O)NCc1ccc(CNC(=O)NCCCCNC(=O)CN)cc1
V: N=C(N)NCCC[C@@H](NC(=O)C(c1ccccc1)c1ccccc1)C(=O)NCc1ccc(CNC(=O)NCCCCNC(=O)NCCN)cc1
# rank by pKi, ascending (min first) Please respond with the labels ordered as the question requires. V, III, I, II, IV
(V: 6.05, III: 6.89, I: 7.20, II: 7.54, IV: 7.85)

P: CCC(=O)NCC(=O)NCCCCNC(=O)NCc1ccc(CNC(=O)[C@@H](CCCNC(=N)N)NC(=O)C(c2ccccc2)c2ccccc2)cc1
Q: NCCOCCOCCNC(=O)/N=C(/N)NCCC[C@@H](NC(=O)C(c1ccccc1)c1ccccc1)C(=O)NCc1ccc(CNC(N)=O)cc1
Which one would you say has the larger pKi value: P , or Q ? Indicate your choice by writing its label. Q
(Q: 7.51, P: 7.14)

P: NCCCOCCOCCOCCNC(=O)CCC(=O)NCCNC(=O)/N=C(\N)NCCC[C@@H](NC(=O)C(c1ccccc1)c1ccccc1)C(=O)NCc1ccc(CNC(N)=O)cc1
Q: N=C(N)NCCC[C@@H](NC(=O)C(c1ccccc1)c1ccccc1)C(=O)NCc1ccc(CNC(=O)NCCCCNC(=O)CNC(=O)CCC(=O)NCCN(CCN)CCNC(=O)CCC(=O)NCC(=O)NCCCCNC(=O)NCc2ccc(CNC(=O)[C@@H](CCCNC(=N)N)NC(=O)C(c3ccccc3)c3ccccc3)cc2)cc1
Which one would you say has the larger pKi value: P , or Q ? Indicate your choice by writing its label. P

P: NCCCCCCNC(=O)/N=C(/N)NCCC[C@@H](NC(=O)C(c1ccccc1)c1ccccc1)C(=O)NCc1ccc(CNC(N)=O)cc1
Q: NCCN(CCNC(=O)CCC(=O)NCCCCCCNC(=O)/N=C(/N)NCCC[C@@H](NC(=O)C(c1ccccc1)c1ccccc1)C(=O)NCc1ccc(O)cc1)CCNC(=O)CCC(=O)NCCCCCCNC(=O)/N=C(/N)NCCC[C@@H](NC(=O)C(c1ccccc1)c1ccccc1)C(=O)NCc1ccc(O)cc1
Which one would you say has the larger pKi value: P , or Q ? Indicate your choice by writing its label. Q
